Each recorded value in this set is attributed to patent US12692244B2.

Quick reference for inhibition of growth at 100 µg/mL among some compounds
Test system: Alternaria alternate
testSummary: Antifungal activity assay, mycelial growth inhibitory rate method
Assay type: cell-based
measurementParameters: 100 μg/mL in PDA medium, 28° C., 48-72 h
metricName: inhibition of growth at 100 µg/mL (%)

>>> measvalue("COC1=CC(=O)C[C@@H](C)[C@]12Oc1c(Cl)c(OC)cc(OC3CCCC3)c1C2=O [Compound 09]")
31
>>> measvalue("COCOc1cc(OC)c(Cl)c2c1C(=O)[C@@]1(O2)C(OC)=CC(=O)C[C@H]1C [Compound 05]")
49.1
>>> measvalue("COC1=CC(=O)C[C@@H](C)[C@]12Oc1c(Cl)c(OC)cc(OCC3CC3)c1C2=O [Compound 04]")
41.4
>>> measvalue("C=CCOc1cc(OC)c(Cl)c2c1C(=O)[C@@]1(O2)C(OC)=CC(=O)C[C@H]1C [Compound 02, 4 Position Allyl Griseofulvin Derivative]")
49.1
>>> measvalue("COC1=CC(=O)C[C@@H](C)[C@]12Oc1c(Cl)c(OC)cc(OCc3ccsc3)c1C2=O [Compound 07]")
43.1
>>> measvalue("CCCCOc1cc(OC)c(Cl)c2c1C(=O)[C@@]1(O2)C(OC)=CC(=O)C[C@H]1C [Compound 03, 4 Position Butyl Griseofulvin Derivative]")
7.41
>>> measvalue("COC1=CC(=O)C[C@@H](C)[C@]12Oc1c(Cl)c(OC)cc(OCc3ccc(C(C)=O)cc3)c1C2=O [Compound 08]")
2.59
>>> measvalue("C#CCOc1cc(OC)c(Cl)c2c1C(=O)[C@@]1(O2)C(OC)=CC(=O)C[C@H]1C [Compound 01]")
97.4
>>> measvalue("COC1=CC(=O)C[C@@H](C)[C@]12Oc1c(Cl)c(OC)cc(OCc3ccccc3F)c1C2=O [Compound 06]")
3.45
>>> measvalue("Cc1cc(O)no1 [Hym, Hymexazol, reference compound]")
92.6

---

Tested on: Botrytis sp.
testSummary: Antifungal activity assay, mycelial growth inhibitory rate method
Assay type: cell-based
measurementParameters: 100 μg/mL in PDA medium, 28° C., 48-72 h, read-out: Average values of antifungal rate (%) B.s.
Description: The antifungal activities were evaluated against seven plant phytopathogenic fungi, by the mycelial growth inhibitory rate method, according to a reported method (Yu-Bin Bai, Meng Zhang, Ding Li, Yu Zhao, Liang-Zhu Huang, and Jin-Ming Gao. J. Agric. Food. Chem., 2023, 71, 16, 6236-6248). […] Each sample was measured in triplicate, each colony diameter of all triplicates was measured 4 times by cross bracketing method. […]
metricName: inhibition of growth at 100 µg/mL (%)

>>> measvalue("COC1=CC(=O)C[C@@H](C)[C@]12Oc1c(Cl)c(OC)cc(OCc3ccc(C(C)=O)cc3)c1C2=O [Compound 08]")
47.6
>>> measvalue("C#CCOc1cc(OC)c(Cl)c2c1C(=O)[C@@]1(O2)C(OC)=CC(=O)C[C@H]1C [Compound 01]")
100
>>> measvalue("COC1=CC(=O)C[C@@H](C)[C@]12Oc1c(Cl)c(OC)cc(OCC3CC3)c1C2=O [Compound 04]")
69.8
>>> measvalue("COCOc1cc(OC)c(Cl)c2c1C(=O)[C@@]1(O2)C(OC)=CC(=O)C[C@H]1C [Compound 05]")
88.6

---

Tested on: Cytospora sp.
testSummary: Antifungal activity assay, mycelial growth inhibitory rate method
Assay type: cell-based
measurementParameters: mycelial growth, PDA medium, 100-0.0488 μg/mL
Entries and their IC50 values follow.
metricName: IC50

>>> measvalue("COC1=CC(=O)C[C@@H](C)[C@]12Oc1c(Cl)c(OC)cc(OCc3ccccc3F)c1C2=O")
"> 100 µg/mL"
>>> measvalue("CCCCOc1cc(OC)c(Cl)c2c1C(=O)[C@@]1(O2)C(OC)=CC(=O)C[C@H]1C")
"> 100 µg/mL"
>>> measvalue("COCOc1cc(OC)c(Cl)c2c1C(=O)[C@@]1(O2)C(OC)=CC(=O)C[C@H]1C")
"81.4 µg/mL"
>>> measvalue("Cc1cc(O)no1 [Hym, Hymexazol, reference compound]")
"> 100 µg/mL"
>>> measvalue("COC1=CC(=O)C[C@@H](C)[C@]12Oc1c(Cl)c(OC)cc(OCc3ccc(C(C)=O)cc3)c1C2=O")
"> 100 µg/mL"
>>> measvalue("C#CCOc1cc(OC)c(Cl)c2c1C(=O)[C@@]1(O2)C(OC)=CC(=O)C[C@H]1C")
"1.84 µg/mL"
>>> measvalue("COC1=CC(=O)C[C@@H](C)[C@]12Oc1c(Cl)c(OC)cc(OCc3ccsc3)c1C2=O")
"> 50 µg/mL"
>>> measvalue("COC1=CC(=O)C[C@@H](C)[C@]12Oc1c(Cl)c(OC)cc(OC3CCCC3)c1C2=O")
"> 25 µg/mL"
>>> measvalue("COC1=CC(=O)C[C@@H](C)[C@]12Oc1c(Cl)c(OC)cc(OCC3CC3)c1C2=O")
"> 50 µg/mL"
>>> measvalue("C=CCOc1cc(OC)c(Cl)c2c1C(=O)[C@@]1(O2)C(OC)=CC(=O)C[C@H]1C")
"> 50 µg/mL"

---

Each record here notes measured inhibition of growth at 100 µg/mL.
Tested on: Botrytis sp.
testSummary: Antifungal activity assay, mycelial growth inhibitory rate method
Type: cell-based
measurementParameters: 100 μg/mL in PDA medium, 28° C., 48-72 h, read-out: Average values of antifungal rate (%) B.s.
metricName: inhibition of growth at 100 µg/mL

>>> measvalue("Cc1cc(O)no1 [Hym, Hymexazol, reference compound]")
"92.5%"
>>> measvalue("CCCCOc1cc(OC)c(Cl)c2c1C(=O)[C@@]1(O2)C(OC)=CC(=O)C[C@H]1C")
"62.3%"
>>> measvalue("COC1=CC(=O)C[C@@H](C)[C@]12Oc1c(Cl)c(OC)cc(OCc3ccsc3)c1C2=O")
"73.8%"
>>> measvalue("COC1=CC(=O)C[C@@H](C)[C@]12Oc1c(Cl)c(OC)cc(OC3CCCC3)c1C2=O")
"63.1%"
>>> measvalue("C=CCOc1cc(OC)c(Cl)c2c1C(=O)[C@@]1(O2)C(OC)=CC(=O)C[C@H]1C")
"85.2%"
>>> measvalue("COC1=CC(=O)C[C@@H](C)[C@]12Oc1c(Cl)c(OC)cc(OCc3ccccc3F)c1C2=O")
"69.8%"

---

Below, each entry is listed with its recorded IC50.
Tested on: Botrytis sp.
testSummary: Antifungal activity assay, mycelial growth inhibitory rate method
Type: cell-based
measurementParameters: mycelial growth, PDA medium, 100-0.0488 μg/mL
metricName: IC50 (µg/mL)

>>> measvalue("C=CCOc1cc(OC)c(Cl)c2c1C(=O)[C@@]1(O2)C(OC)=CC(=O)C[C@H]1C [Compound 02, 4 Position Allyl Griseofulvin Derivative]")
3.93
>>> measvalue("C#CCOc1cc(OC)c(Cl)c2c1C(=O)[C@@]1(O2)C(OC)=CC(=O)C[C@H]1C [Compound 01]")
2.84
>>> measvalue("COC1=CC(=O)C[C@@H](C)[C@]12Oc1c(Cl)c(OC)cc(OCc3ccsc3)c1C2=O [Compound 07]")
17.6
>>> measvalue("Cc1cc(O)no1 [Hym, Hymexazol, reference compound]")
13.5
>>> measvalue("COCOc1cc(OC)c(Cl)c2c1C(=O)[C@@]1(O2)C(OC)=CC(=O)C[C@H]1C [Compound 05]")
31.6

---

Test system: Colletotrichum gloeosporioides
testSummary: Antifungal activity assay, mycelial growth inhibitory rate method
Format: cell-based
measurementParameters: mycelial growth, PDA medium, 100-0.0488 μg/mL
metricName: IC50

>>> measvalue("Cc1cc(O)no1 [Hym, Hymexazol, reference compound]")
"> 100 µg/mL"
>>> measvalue("COC1=CC(=O)C[C@@H](C)[C@]12Oc1c(Cl)c(OC)cc(OCC3CC3)c1C2=O")
"> 100 µg/mL"
>>> measvalue("COC1=CC(=O)C[C@@H](C)[C@]12Oc1c(Cl)c(OC)cc(OCc3ccc(C(C)=O)cc3)c1C2=O")
"> 100 µg/mL"
>>> measvalue("CCCCOc1cc(OC)c(Cl)c2c1C(=O)[C@@]1(O2)C(OC)=CC(=O)C[C@H]1C")
"> 25 µg/mL"
>>> measvalue("COC1=CC(=O)C[C@@H](C)[C@]12Oc1c(Cl)c(OC)cc(OC3CCCC3)c1C2=O")
"> 100 µg/mL"

---

Test system: Botrytis sp.
testSummary: Antifungal activity assay, mycelial growth inhibitory rate method
Type: cell-based
measurementParameters: mycelial growth, PDA medium, 100-0.0488 μg/mL
metricName: IC50

>>> measvalue("COC1=CC(=O)C[C@@H](C)[C@]12Oc1c(Cl)c(OC)cc(OCc3ccccc3F)c1C2=O [Compound 06]")
"> 25 mg/L"
>>> measvalue("COC1=CC(=O)C[C@@H](C)[C@]12Oc1c(Cl)c(OC)cc(OCc3ccc(C(C)=O)cc3)c1C2=O [Compound 08]")
"> 100 mg/L"
>>> measvalue("COC1=CC(=O)C[C@@H](C)[C@]12Oc1c(Cl)c(OC)cc(OC3CCCC3)c1C2=O [Compound 09]")
"> 25 mg/L"
>>> measvalue("CCCCOc1cc(OC)c(Cl)c2c1C(=O)[C@@]1(O2)C(OC)=CC(=O)C[C@H]1C [Compound 03, 4 Position Butyl Griseofulvin Derivative]")
"> 25 mg/L"
>>> measvalue("COC1=CC(=O)C[C@@H](C)[C@]12Oc1c(Cl)c(OC)cc(OCC3CC3)c1C2=O [Compound 04]")
"> 100 mg/L"
